# TARGET: PDZØ9 (pWT SAP97 PDZ2 L391F/K392M) (Homo sapiens, UniProt Q12959, C378A/I342W/K392M/L391F)
# Construct: constituting SAP97 residues 311–407 and the mutations I342W and C372A; His-tagged lipoyl protein domain (N, cleaved yes); made in house
# Sequence (Q12959 311-407, stated change not applied): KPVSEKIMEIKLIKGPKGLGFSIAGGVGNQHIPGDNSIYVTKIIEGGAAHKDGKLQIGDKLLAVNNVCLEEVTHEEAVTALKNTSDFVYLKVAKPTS
# PROCEDURE_TEXT: Stopped-flow binding kinetics, peptide with PDZØ9
# TEST_PARAMETERS: stopped-flow, Trp342 fluorescence, 1 µM PDZ, peptide 2–40 µM, N-acetylated peptide, 50 mM potassium phosphate pH 7.5, 10 °C; value ± standard error
Ends that are not written are not given here.
MEASURE_NAME: kon (M⁻¹ s⁻¹)
Only the number, expressed in M⁻¹ s⁻¹, is required.

> print(dat)
                                  substance  measure.name   result
1                      Ac-KRKETLV [KRKETLV]           kon    8e+06
2                      Ac-SARSTDV [SARSTDV]           kon  1.3e+07
3                      Ac-PGKETQL [PGKETQL]           kon  1.6e+07
4                      Ac-EKKHTLL [EKKHTLL]           kon  1.4e+07
5                      Ac-YRRESAI [YRRESAI]           kon  2.2e+07
6  Ac-RRRETQV [RRRETQV, reference compound]           kon  9.8e+06
7                      Ac-NSKETVV [NSKETVV]           kon    1e+07
8                      Ac-RSISTDV [RSISTDV]           kon  1.7e+07

Asked: // lookup kon for Ac-TSRETDL [TSRETDL]
Given back: 1.5e+07

Asked: // lookup kon for Ac-VSKETPL [VSKETPL]
Given back: 8.4e+06
